Sourced from paper PMC11758220

Listing of entries alongside the reported pKd.
- Target under test: STARD5 (Homo sapiens)
- Construct: STARD5(6-213); host or cells: E. coli BL21(DE3)
- Sequence (Q9NSY2 6-213): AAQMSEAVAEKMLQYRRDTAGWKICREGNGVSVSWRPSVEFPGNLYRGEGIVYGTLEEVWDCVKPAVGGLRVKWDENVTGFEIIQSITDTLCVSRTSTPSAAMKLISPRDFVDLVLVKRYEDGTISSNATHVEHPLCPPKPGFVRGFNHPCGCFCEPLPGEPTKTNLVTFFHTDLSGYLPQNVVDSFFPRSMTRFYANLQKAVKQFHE
- Assay text: Differential scanning fluorimetry (DSF), STARD5
- Type: binding
- Run conditions: apparent Kd; mean of three experiments run in technical duplicates; read-out: STARD5 Kd,app (DSF)
pKd: −log10 of the molar value.

Measured pKd, CC12CCC3CC1CCC21C(=Nc2ccc(Br)cc21)O3 (single isomer, unassigned; (+)) [(+)-15b] : < 4.00

Measured pKd, COc1ccc(-c2ccc3c(c2)C24CCC5CC(CCC52C)OC4=N3)cc1 (centres unmarked) [Compound 21b] : < 4.00

Measured pKd, CC(C)Oc1ccc(C(=O)Nc2nc3c(s2)CN(C(=O)OC(C)(C)C)CC3)cc1 [Autogramin-2, reference compound] : < 4.52

Measured pKd, C[C@@]12CC[C@H]3C[C@@H]1CC[C@]21C(=Nc2ccc(Br)cc21)O3 [(−)-15b] : < 4.00

Measured pKd, C[C@]12CC[C@@H]3C[C@H]1CC[C@@]21C(=Nc2ccccc21)O3 [Compound 15a] : < 4.00

Next:
Measured pKd, CC12CCC3CC1CCC21C(=Nc2ccc(N4CCOCC4)cc21)O3 (single isomer, unassigned; (-)) [(−)-19a] : < 4.52

Measured pKd, CC12CCC3CC1CCC21C(=Nc2ccc(N4CCOCC4)cc21)O3 (racemic) [Compound 19a] : < 4.52

Measured pKd, C[C@]12CC[C@@H]3C[C@H]1CC[C@@]21C(=Nc2ccc(N4CCN(Cc5ccncc5)CC4)cc21)O3 [Compound 24] : < 4.00

====

- Target under test: STARD1 (Homo sapiens)
- Construct: STARD1(66-284); made in house; host or cells: E. coli BL21(DE3)
- Sequence (P49675 66-284): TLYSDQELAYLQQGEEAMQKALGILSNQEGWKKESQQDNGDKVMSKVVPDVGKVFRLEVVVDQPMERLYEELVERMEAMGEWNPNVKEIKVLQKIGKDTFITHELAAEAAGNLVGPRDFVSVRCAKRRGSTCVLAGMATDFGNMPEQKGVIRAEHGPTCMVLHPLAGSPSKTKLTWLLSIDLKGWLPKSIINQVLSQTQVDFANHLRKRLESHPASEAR
- Assay text: Fluorescence polarisation (FP) competition with NBD-cholesterol, STARD1
- Format: binding
- Run conditions: single dose, Dose = 10 µM
Recorded endpoint: STARD1 (FP) inhibition (%)
// note: answer is a bare numeric in %

These recorded examples may help you get a feel for the data.
Measured STARD1 (FP) inhibition, C[C@]12CC[C@@H](O)C[C@H]1CCc1nc3cc(Cl)c(Cl)cc3nc12 : 17

Measured STARD1 (FP) inhibition, C[C@]12CC[C@@H](O)C[C@H]1CCC[C@]21NC(=O)c2ccc(F)cc2N1 : 1.67

Next:
Measured STARD1 (FP) inhibition, C[C@]12CC[C@@H](O)C[C@H]1CCc1c2nc2ccccc2c1-c1ccccc1 : -3.33

Measured STARD1 (FP) inhibition, C[C@]12CC[C@@H](O)C[C@H]1CCc1c2[nH]c2ccc(Cl)cc12 [Compound 10c] : -12

Measured STARD1 (FP) inhibition, C[C@]12CC[C@@H](O)C[C@H]1CCc1sc(-c3ccc(F)cc3)nc12 : 17

Measured STARD1 (FP) inhibition, Cc1nc2c(s1)CC[C@@H]1C[C@H](O)CC[C@]21C : 8

Measured STARD1 (FP) inhibition, CCOC(=O)c1ccc2[nH]c3c(c2c1)CC[C@@H]1C[C@H](O)CC[C@]31C [Compound 10k] : -12

Measured STARD1 (FP) inhibition, C[C@]12CC[C@@H](O)C[C@H]1CCc1nc3cc(F)c(F)cc3nc12 : 12

====

Listing of entries alongside the reported pKd.
- Target under test: STARD4 (Homo sapiens, UniProt Q96DR4, C75S)
- Construct: STARD4(2-205; C75S); made in house; host or cells: E. coli BL21(DE3)
- Sequence (Q96DR4 2-205 C75S): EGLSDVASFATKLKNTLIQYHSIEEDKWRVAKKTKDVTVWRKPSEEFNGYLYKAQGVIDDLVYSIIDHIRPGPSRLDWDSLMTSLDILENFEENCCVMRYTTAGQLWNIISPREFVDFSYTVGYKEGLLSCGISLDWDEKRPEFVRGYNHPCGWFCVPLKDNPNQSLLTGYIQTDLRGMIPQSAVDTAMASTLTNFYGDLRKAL
- Assay text: Differential scanning fluorimetry (DSF), STARD4
- Format: binding
- Run conditions: apparent Kd; mean of three experiments run in technical duplicates; read-out: STARD4 Kd,app (DSF)
In simple prose, pKd is minus the logarithm base ten of a concentration in moles per litre.

These recorded examples may help you get a feel for the data.
Measured pKd, C[C@]12CC[C@@H]3C[C@H]1CC[C@@]21C(=Nc2ccc(N4CCN(Cc5ccncc5)CC4)cc21)O3 : 5.19

Measured pKd, CC12CCC3CC1CCC21C(=Nc2ccc(Br)cc21)O3 (single isomer, unassigned; (+)) [(+)-15b] : 5.10

Measured pKd, CC12CCC3CC1CCC21C(=Nc2ccc(NCc4ccccc4)cc21)O3 (stereo not drawn) [Compound 19b] : 5.46

Measured pKd, CC(C)(C)OC(=O)N1CCN(c2ccc3c(c2)C24CCC5CC(CCC52C)OC4=N3)CC1 (stereo not drawn) [Compound 19e] : 5.54

Measured pKd, CCCCCNc1ccc2c(c1)[C@@]13CC[C@@H]4C[C@@H](CC[C@@]41C)OC3=N2 [Compound 19c] : 5.39

Measured pKd, C[C@@]12CC[C@H]3C[C@@H]1CC[C@]21C(=Nc2ccc(Br)cc21)O3 [(−)-15b] : 5.22

Measured pKd, CCCCN(C)c1ccc2c(c1)[C@@]13CC[C@@H]4C[C@@H](CC[C@@]41C)OC3=N2 [Compound 19d] : 5.34

Turning now to a further compound:
Measured pKd, Cc1ccc2c(c1)[C@@]13CC[C@@H]4C[C@@H](CC[C@@]41C)OC3=N2 [Compound 15e] : 5.21

====

pIC50: −log10 of the molar value.
// Aster-C (Homo sapiens, UniProt Q8IYS0) pIC50 records

These recorded examples may help you get a feel for the data.
Measured pIC50, CCCCCNc1ccc2c(c1)[C@@]13CC[C@@H]4C[C@@H](CC[C@@]41C)OC3=N2 [Compound 19c] : < 4.10

Measured pIC50, CC12CCC3CC1CCC21C(=Nc2ccc(NCc4ccccc4)cc21)O3 (centres unmarked) [Compound 19b] : < 4.10

Measured pIC50, CCCCN(C)c1ccc2c(c1)[C@@]13CC[C@@H]4C[C@@H](CC[C@@]41C)OC3=N2 [Compound 19d] : < 4.10

Next:
Measured pIC50, CC12CCC3CC1CCC21C(=Nc2ccc(N4CCOCC4)cc21)O3 (racemic) [Compound 19a] : < 4.10

Measured pIC50, Cc1ccc2c(c1)[C@@]13CC[C@@H]4C[C@@H](CC[C@@]41C)OC3=N2 [Compound 15e] : < 4.10

Measured pIC50, C[C@]12CC[C@@H]3C[C@H]1CC[C@@]21C(=Nc2ccccc21)O3 [Compound 15a] : < 4.10

====

- Target under test: STARD4 (Homo sapiens, UniProt Q96DR4, C75S)
- Construct: STARD4(2-205; C75S); made in house; host or cells: E. coli BL21(DE3)
- Assay text: Differential scanning fluorimetry (DSF), STARD4
- Assay type: binding
- Run conditions: single dose, Dose = 10 µM
Recorded endpoint: ΔTm at 10 µM (°C)
// note: answer is a bare numeric in °C

Measured ΔTm at 10 µM, C[C@]12CC[C@@H](O)C[C@H]1CCc1sc(N)nc12 : -0.00456

Measured ΔTm at 10 µM, CCCCN(C)c1ccc2c(c1)[C@@]13CC[C@@H]4C[C@@H](CC[C@@]41C)OC3=N2 [Compound 19d] : 3.9

Next:
Measured ΔTm at 10 µM, COc1ccc(-c2ccc3c(c2)C24CCC5CC(CCC52C)OC4=N3)cc1 (centres unmarked) [Compound 21b] : 0.548

Measured ΔTm at 10 µM, COc1ccc2c(c1)C(=O)N[C@]1(CCC[C@@H]3C[C@H](O)CC[C@@]31C)N2 : -0.0676

====

- Target under test: Aster-B (Homo sapiens, UniProt Q3KR37)
- Construct: -B(364-552); GST (PreScission-cleavable) (N, cleaved yes); made in house; host or cells: E. coli OverExpress C41
- Sequence (Q3KR37 364-552): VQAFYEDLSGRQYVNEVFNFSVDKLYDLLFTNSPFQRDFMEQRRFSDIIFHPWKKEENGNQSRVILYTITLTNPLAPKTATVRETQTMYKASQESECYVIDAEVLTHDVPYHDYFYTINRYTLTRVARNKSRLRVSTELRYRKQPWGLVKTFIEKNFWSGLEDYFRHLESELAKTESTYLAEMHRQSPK
- Assay text: Fluorescence polarisation (FP) competition with NBD-cholesterol, Aster-B
- Assay type: binding
- Run conditions: single dose, Dose = 10 µM
Recorded endpoint: Aster-B (FP) inhibition (%)
// note: answer is a bare numeric in %

These recorded examples may help you get a feel for the data.
Measured Aster-B (FP) inhibition, C[C@]12CC[C@@H](O)C[C@H]1CCc1nc3cc(Cl)c(Cl)cc3nc12 : 11

Measured Aster-B (FP) inhibition, C[C@]12CC[C@@H](O)C[C@H]1CCc1c2[nH]c2ccc(Br)cc12 [Compound 10b] : -2.5

Measured Aster-B (FP) inhibition, C[C@]12CC[C@@H](O)C[C@H]1CCC(=O)c1ccccc1NC2=O [Compound 11a] : 10

Turning now to a further compound:
Measured Aster-B (FP) inhibition, C[C@]12CC[C@@H]3C[C@H]1CC[C@@]21C(=Nc2ccc(N(Cc4ccccc4)c4ccc5c(c4)[C@@]46CC[C@@H]7C[C@@H](CC[C@@]74C)OC6=N5)cc21)O3 [Compound 20a] : 6

====

Listing of entries alongside the reported inhibition at 10 µM.
- Target under test: Aster-C (Homo sapiens, UniProt Q8IYS0)
- Construct: -C(318-504); GST (PreScission-cleavable) (N, cleaved yes); made in house; host or cells: E. coli OverExpress C41
- Sequence (Q8IYS0 318-504): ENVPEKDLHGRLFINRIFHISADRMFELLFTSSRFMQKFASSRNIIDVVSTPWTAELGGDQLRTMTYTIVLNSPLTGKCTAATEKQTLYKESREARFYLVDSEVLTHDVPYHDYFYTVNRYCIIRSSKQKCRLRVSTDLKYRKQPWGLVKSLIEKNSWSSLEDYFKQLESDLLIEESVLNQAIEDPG
- Assay text: Fluorescence polarisation (FP) competition with NBD-cholesterol, Aster-C
- Type: binding
- Run conditions: single dose, Dose = 10 µM
// note: answer is a bare numeric in %

These recorded examples may help you get a feel for the data.
Measured inhibition at 10 µM, C[C@]12CC[C@@H](O)C[C@H]1CCC[C@]21NC(=O)c2ccccc2N1 : 0

Measured inhibition at 10 µM, C[C@@]12CC[C@H]3C[C@@H]1CC[C@]21C(=Nc2ccc(Br)cc21)O3 [(−)-15b] : -0.8

Measured inhibition at 10 µM, C[C@]12CC[C@@H]3C[C@H]1CC[C@@]21C(=Nc2ccc(-c4ccccc4)cc21)O3 [Compound 21a] : -0.8

Measured inhibition at 10 µM, Cc1cc(C)c2c(c1)N=C1[C@@]2(O)CC[C@@H]2C[C@H](O)CC[C@]12C [Compound 14c] : 3.2

Measured inhibition at 10 µM, CC(C)(C)OC(=O)N1CCN(c2ccc3c(c2)C24CCC5CC(CCC52C)OC4=N3)CC1 (centres unmarked) [Compound 19e] : 1.6

Measured inhibition at 10 µM, C[C@]12CC[C@@H]3C[C@H]1CC[C@@]21C(=Nc2c(F)cc(Cl)cc21)O3 [Compound 15i] : -1.6

Measured inhibition at 10 µM, COc1ccc2c(c1)[C@@]13CC[C@@H]4C[C@@H](CC[C@@]41C)OC3=N2 [Compound 15f] : 10

Measured inhibition at 10 µM, C[C@]12CC[C@@H](O)C[C@H]1CCC(=O)c1cc(Br)ccc1NC2=O [Compound 11b] : -2.4

Measured inhibition at 10 µM, CC12CCC3CC1CCC21C(=Nc2c(Br)cc(C(F)(F)F)cc21)O3 (centres unmarked) [Compound 15h] : 0

Measured inhibition at 10 µM, C[C@]12CC[C@@H]3C[C@H]1CC[C@@]21C(=Nc2ccc(C(F)(F)F)cc21)O3 [Compound 15g] : -0.8

Next:
Measured inhibition at 10 µM, CC12CCC3CC1CCC21C(=Nc2ccc(NCc4ccccc4)cc21)O3 (centres unmarked) [Compound 19b] : -2.4

Measured inhibition at 10 µM, C[C@]12CC[C@@H]3C[C@H]1CC[C@@]21C(=Nc2ccccc21)O3 [Compound 15a] : -4

Measured inhibition at 10 µM, Cc1ccc2c(c1)C(=O)CC[C@@H]1C[C@H](O)CC[C@]1(C)C(=O)N2 [Compound 11c] : -5.6

Measured inhibition at 10 µM, Cc1cc(C)c2c(c1)NC(=O)[C@@]1(C)CC[C@@H](O)C[C@H]1CCC2=O [Compound 11g] : -0.8

Measured inhibition at 10 µM, C[C@]12CC[C@@H](O)C[C@H]1CCc1c2[nH]c2ncccc12 : -3.2

Measured inhibition at 10 µM, Cc1cc(C)c2c3c([nH]c2c1)[C@@]1(C)CC[C@@H](O)C[C@H]1CC3 [Compound 10j] : 0.8

Measured inhibition at 10 µM, CC12CCC3CC1CCC21C(=Nc2ccc(Cl)cc21)O3 (centres unmarked) [Compound 15c] : -4

Measured inhibition at 10 µM, CC12CCC(O)CC1CCc1c2[nH]c2ccc(C(F)(F)F)cc12 (centres unmarked) [Compound 10g] : -5

Measured inhibition at 10 µM, C[C@]12CC[C@@H](O)C[C@H]1CCC(=O)c1cc(C(F)(F)F)ccc1NC2=O [Compound 11e] : -1.6

Measured inhibition at 10 µM, C[C@]12CC[C@@H](O)C[C@H]1CCc1[nH]c(-c3ccccc3)nc12 : -3.2
